# UniProt P47871: pIC50 values follow
# Sequence (P47871 26-477): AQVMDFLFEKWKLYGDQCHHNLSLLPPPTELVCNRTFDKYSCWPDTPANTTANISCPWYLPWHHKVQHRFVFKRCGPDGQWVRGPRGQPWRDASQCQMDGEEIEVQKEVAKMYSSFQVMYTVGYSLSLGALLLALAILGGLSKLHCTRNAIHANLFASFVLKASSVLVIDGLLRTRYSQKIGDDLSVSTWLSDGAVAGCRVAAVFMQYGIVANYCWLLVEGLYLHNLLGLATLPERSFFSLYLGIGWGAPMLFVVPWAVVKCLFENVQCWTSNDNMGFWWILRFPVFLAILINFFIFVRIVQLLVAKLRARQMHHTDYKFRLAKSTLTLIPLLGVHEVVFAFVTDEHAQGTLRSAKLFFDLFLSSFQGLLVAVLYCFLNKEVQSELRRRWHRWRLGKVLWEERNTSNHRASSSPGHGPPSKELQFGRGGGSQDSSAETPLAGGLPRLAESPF
The quantity pIC50 is defined as the negative base-10 logarithm of the molar concentration.

Illustrative cases are given below, each with its answer.
>>> print(df.to_string())
                                   compound  number
0  CCCC(c1ccc(C(=O)NCCC(=O)O)cc1)C(COc1ccc2cc(OC)ccc2c1)c1ccc(Cl)cc1 (racemic) [Example 86]    7.80
1  CCC[C@H](c1ccc(C(=O)NCCC(=O)O)cc1)[C@@H](Oc1ccc(C#N)c2ccccc12)c1ccc(Cl)cc1 [Example 9]    8.21
2  CCC[C@H](c1ccc(C(=O)NCCC(=O)O)cc1)[C@@H](Oc1cc(C#N)cc(-c2ccc(C(F)(F)F)cc2)c1)c1ccc(Cl)cc1 [Example 36]    8.20
3  CCC[C@H](c1ccc(C(=O)NCCC(=O)O)cc1)[C@@H](Oc1ccc(-c2cccn2C)cc1)c1ccc(Cl)cc1 [Example 47]    8.04
4  CCC[C@H](c1ccc(C(=O)NCCC(=O)O)cc1)[C@@H](OCc1ccc(-c2ccccc2)cc1)c1ccc(Cl)cc1 [Example 74]    7.70
5  CCC[C@H](c1ccc(C(=O)NCCC(=O)O)cc1)[C@@H](Oc1ccc(C)c(C#N)c1)c1ccc(Cl)cc1 [Example 16]    7.80
6  CCC[C@H](c1ccc(C(=O)NCCC(=O)O)cc1)[C@@H](Oc1ccnc2cc(C)ccc12)c1ccc(Cl)cc1 [Example 68]    8.14
7  CCC[C@H](c1ccc(C(=O)NCCC(=O)O)cc1)[C@@H](Oc1ccc(C(F)(F)F)c(C#N)c1)c1ccc(Cl)cc1 [Example 15]    8.23

Now consider the entry below.
Prompt line: pIC50 of CCC[C@H](c1ccc(C(=O)NCCC(=O)O)cc1)[C@@H](OCc1ccc2ccccc2c1)c1ccc(Cl)cc1 [Example 73] on UniProt P47871?
Response line: 7.42
